- Test system: UO-31 renal
- assay-info: NCI-60 one-dose screen, 48 h (100 = growth as untreated, 0 = no growth, -100 = all killed)
- particulars: 10 µM unless noted
This is part of a sample that, as a whole, favours compounds with a hit. Of some 83,000 tested, about 20% had one in any assay.
Recorded growth by entry

- molecule: "Cc1ccc(S(=O)(=O)n2cc(C(=O)C(=O)N3CCOCC3)c3ccccc32)cc1"
  measured-target: "UO-31 renal"
  growth, %: 59.7
- molecule: "NC(=O)c1c(NC(=S)Nc2ccc(OC(F)(F)F)cc2)sc2c1CCC1(C2)OCCO1"
  measured-target: "UO-31 renal"
  growth, %: 88
- molecule: "CCCN=C1NC(=O)/C(=C/c2nc(-c3ccc(OC)cc3)n3ccccc23)S1"
  measured-target: "UO-31 renal"
  growth, %: 91.8
- molecule: "O=C1C2(c3ccccc3)C(c3ccccc3)=C(c3ccccc3)C1(c1ccccc1)C1CC=CC12 (stereo not given)"
  measured-target: "UO-31 renal"
  growth, %: 61.6
- molecule: "Cc1ccc(S(=O)(=O)NCCCNc2cc(-c3cn(C(C)(C)C)nc3-c3cccc(O)c3)ccn2)cc1"
  measured-target: "UO-31 renal"
  growth, %: 73.2
- molecule: "C=C1c2nc3ccccc3n2C=C(c2ccc(Cl)cc2)N1Cc1ccccc1"
  measured-target: "UO-31 renal"
  growth, %: 48.2
- molecule: "Cc1ccc(S(=O)(=O)Nc2c(Br)cc(Br)cc2C(N)=O)cc1"
  measured-target: "UO-31 renal"
  growth, %: 91.9
- molecule: "O=C(CSc1nc2ccccc2[nH]1)c1ccc(N2CCOCC2)cc1"
  measured-target: "UO-31 renal"
  growth, %: 85.5
- molecule: "O=Nc1c(-c2cccc([N+](=O)[O-])c2)nc2ncccn12"
  measured-target: "UO-31 renal"
  growth, %: -3.03
- molecule: "COc1cc2c(cc1O)CCN1C[C@@H](CC(C)C)[C@@H](O)C[C@@H]21"
  measured-target: "UO-31 renal"
  growth, %: 88.4

---

- Test system: UO-31 renal
- assay-info: NCI-60 one-dose screen, 48 h
- particulars: 10 µM unless noted
About 83,000 compounds went through this panel and 20% of them were active in at least one assay; those are over-represented in the sample as a whole. Active and inactive are the calls of the source. Rule for the calls: active = growth percent below 10; inactive = the rest.
Outcome codes: active, inactive

- compound: "Cc1ccc(S(=O)(=O)n2cc(C(=O)C(=O)Nc3ccncc3)c3ccccc32)cc1"
  label: "inactive"
- compound: "c1ccc(-c2nnc(-c3ccccn3)s2)nc1"
  label: "inactive"
- compound: "N/C(=N\\S(=O)(=O)c1ccccc1)Nc1nc2ccccc2s1"
  label: "inactive"
- compound: "Oc1ccc(Cl)cc1-c1cc(-c2ccc(F)cc2)n[nH]1"
  label: "inactive"
- compound: "CCOC(=O)c1ccc(NC(=O)N2CC(C)OC(C)C2)cc1 (stereo unspecified)"
  label: "active"
- compound: "CCOC(=O)C1=C(C)NC(C)=C(C(=O)OCC)C1(C)C"
  label: "inactive"
- compound: "CCN(CC)c1ccc(N=O)cc1"
  label: "inactive"
- compound: "O=[N+]([O-])c1cc(Cl)c2[nH]c3c(Cl)cc([N+](=O)[O-])cc3c2c1"
  label: "active"
- compound: "COc1ccc2c(c1)[nH]c(=O)c1c3cccc(F)c3cn21"
  label: "inactive"
- compound: "C=C1CCC[C@]2(C)CCC[C@H](C)[C@@H](OC(C)=O)[C@@H]3OC(=O)C(=C)[C@@H]3C[C@H]1O2"
  label: "inactive"
- compound: "Cc1c(C(N)=O)sc2c1c(=O)n(Cc1ccccc1)c1nnc(Nc3ccccc3)n21"
  label: "inactive"
